target: Interleukin-8 (IL8, CXCL8), C-terminal His-tagged (Homo sapiens, UniProt P10145 SEQ:1-72); assay: TR-FRET, 5 nM IL8, protein-limited; bead flow 13 nM; conditions: tags: C-terminal 6xHis (Sino Biological); label: Alexa Fluor 647
Sequence (P10145 28-99): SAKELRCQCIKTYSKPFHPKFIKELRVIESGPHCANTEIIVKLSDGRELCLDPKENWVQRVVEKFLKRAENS
pKd: −log10 of the molar value.
parameter: pKd

1) UCCGGUUGCUGAGAUGUGAGAUUAAUGUCCACCGUU (ssRNA, 2'-F G, 2'-OMe A/C/U, 5' C6NH2, 3' idT) [Aptamer 11] = 8.70
